Values from patent US10433553B2

- System: ALOMY
- assayText: Pre-emergence herbicidal action against harmful plants
- Format: in vivo
- conditionSummary: dosage 320 g/ha, scored visually after 3 weeks
measuredAttribute: Activity against ALOMY (%)
Only the number, expressed in %, is required.

IN: Give Activity against ALOMY for the following molecule: CCc1nnc(NC(=O)c2ccc(S(=O)(=O)CC)c(C3=NOC(COC)C3)c2Cl)o1 (stereo not shown) [drawing 38]
OUT: 10

IN: Consider the molecule CCc1nnc(NC(=O)c2ccc(S(=O)(=O)CC)c(C3=NOC(COC)C3)c2Cl)o1 (stereo not shown) [drawing 36] . State its measured Activity against ALOMY.
OUT: 10

IN: Give recorded Activity against ALOMY. CCc1nnc(NC(=O)c2ccc(S(=O)(=O)CC)c(C3=NOC(COC)C3)c2Cl)o1 (stereo not shown) [drawing 37]
OUT: 20

IN: Determine from records and report Activity against ALOMY for CCc1nnc([N-]C(=O)c2ccc(S(=O)(=O)CC)c(C3=NOC(COC)C3)c2Cl)o1.[Na+] (stereo not shown)
OUT: 30

----------
- Tested on: ABUTH
- assayText: Pre-emergence herbicidal action against harmful plants
- Format: in vivo, Abutilon theophrasti
- conditionSummary: dosage 20 g/ha, scored visually after 3 weeks, 100% = plants have died, 0% = like control plants
Answer each item with its documented Activity against ABUTH.
The response must be a number in % with no trailing unit.

IN: // fetch Activity against ABUTH; item: Cc1nnc(NC(=O)c2ccc(C(F)(F)F)c(S(C)(=O)=O)c2C)o1 [drawing 15] ; system: ABUTH
OUT: 100

IN: GET Activity against ABUTH | system: ABUTH | item: Cc1nnc(NC(=O)c2ccc(C(F)(F)F)c(S(C)(=O)=O)c2C)o1 [drawing 14]
OUT: 70

IN: Give reported Activity against ABUTH for Cc1nnc(NC(=O)c2ccc(C(F)(F)F)c(S(C)(=O)=O)c2C)o1 [drawing 16] (ABUTH)
OUT: 70

IN: Provide Activity against ABUTH, tested on ABUTH, for Cc1nnc(NC(=O)c2ccc(C(F)(F)F)c([S+](C)[O-])c2Cl)o1 (centres unmarked) [drawing 34] .
OUT: 60

IN: Fetch value of Activity against ABUTH on ABUTH for Cc1nnc(NC(=O)c2ccc(C(F)(F)F)c(S(C)(=O)=O)c2C)o1 [drawing 13] .
OUT: 100

----------
- Test system: CYPES
- assayText: Pre-emergence herbicidal action against harmful plants
- Type: in vivo
- conditionSummary: dosage 20 g/ha, scored visually after 3 weeks
- Description: 1. Pre-Emergence Herbicidal Action Against Harmful Plants Seeds of monocotyledonous and dicotyledonous weed plants and crop plants are laid out in wood-fiber pots in sandy loam and covered with soil. […] The comparative tests were conducted by way of example on some weed plants and crop plants.
Task for the reader: assign each of the following compounds its reported Activity against CYPES.
State the answer as a number, implicitly in %.

IN: Answer with reported Activity against CYPES of Cc1nnc(NC(=O)c2ccc(C(F)(F)F)c(S(C)(=O)=O)c2C)o1 [drawing 23]
OUT: 70

IN: Specify reported Activity against CYPES for the compound shown: Cc1nnc(NC(=O)c2ccc(C(F)(F)F)c(S(C)(=O)=O)c2C)o1 [drawing 29]
OUT: 70

IN: Return Activity against CYPES for the following compound: Cc1nnc(NC(=O)c2ccc(C(F)(F)F)c([S+](C)[O-])c2Cl)o1 (centres unmarked) [drawing 32]
OUT: 60

IN: Please list Activity against CYPES recorded for the compound Cc1nnc(NC(=O)c2ccc(C(F)(F)F)c(S(C)(=O)=O)c2C)o1 [drawing 30]
OUT: 40

IN: Answer with the recorded Activity against CYPES for the compound listed here: Cc1nnc([N-]C(=O)c2ccc(C(F)(F)F)c(S(C)(=O)=O)c2C)o1.[Na+] [drawing 25]
OUT: 40
